# subject of test: T1, Streptococcus pyogenes Cas9 (a.a. 1-1368) (S. pyogenes, UniProt Q99ZW2 1-1368)
# T1 construct: Cas9 RNA-guided endonuclease of Streptococcus pyogenes, residues 1-1368, synthetic gene in pET28b; the two states are told apart by the assay; also called SpyCas9; apo-SpyCas9; source: E. coli BL21(DE3), purified (HisTrap HP, HiTrap SP, Superdex200)
# measurement protocol: ITC; apo-SpyCas9 (no sgRNA): 50 uM SpyCas9 in the cell titrated with 500 uM AcrIIA4; 25 °C; 20 mM sodium phosphate, pH 7.4, 100 mM NaCl, 5 mM BME, 0.01% NaN3; one-site binding model
# test conditions: both partners purified
measurement name: pKd
For clarity, pKd is expressed as the negative log10 of concentration in mol/L.

Exercise: Provide pKd value for the following binder: Listeria monocytogenes anti-CRISPR protein AcrIIA4 (a.a. 1-87) (natural protein, Listeria monocytogenes (prophage), UniProt A0A247D711 1-87, looked up, AcrIIA4, anti-CRISPR protein encoded by Listeria monocytogenes prophages, residues 1-87, synthetic gene; Cloned into a modified pBT7-N-His vector; also called 15N-AcrIIA4; 13C,15N-AcrIIA4; source: E. coli BL21star(DE3), purified (HisTrap, TEV cleavage, Superdex 75, MonoQ); not shown: His6, N-terminal, cleaved) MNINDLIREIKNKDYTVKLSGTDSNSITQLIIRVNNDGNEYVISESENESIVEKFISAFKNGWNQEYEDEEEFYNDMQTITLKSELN
Solution: 5.32
